test system: 565232-114-T-J1-PDC complex spheroid viability; assay: Anticancer human tumor 565232-114-T-J1-PDC patient-derived bladder carcinoma cell line growth inhibition [CLK]; conditions: second compound 1 µM; first compound 0.00949 µM; active means viability on the fitted dose curve at most 10% of control; inactive means the rest;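 further: spheroids exposed to compounds for 7 days before readout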
// allowed return values: active, inactive

Prompt: Recorded test call requested for NC(=O)C(=Cn1cnc(-c2cc(C(F)(F)F)cc(C(F)(F)F)c2)n1)c1cncnc1 + CN1CCN(c2cc(C(=O)Nc3cc4cc(-c5cnn(C)c5)ccc4cn3)ccn2)CC1
Response: active

Prompt: Recorded test call requested for C=CC(=O)Nc1cc(Nc2nccc(-c3cn(C)c4ccccc34)n2)c(OC)cc1N(C)CCN(C)C + CN1CCN(c2cc(C(=O)Nc3cc4cc(-c5cnn(C)c5)ccc4cn3)ccn2)CC1
Response: active

Prompt: Recorded test call requested for NC(=O)C(=Cn1cnc(-c2cc(C(F)(F)F)cc(C(F)(F)F)c2)n1)c1cncnc1 + CNC(=O)c1ccc(Nc2nc(OC3CCCC3)c3c(-c4ccc5nc(C)oc5c4)c[nH]c3n2)c(OC)c1
Response: inactive

Prompt: Recorded test call requested for C=CC(=O)Nc1cc(Nc2nccc(-c3cn(C)c4ccccc34)n2)c(OC)cc1N(C)CCN(C)C + CNC(=O)c1ccc(Nc2nc(OC3CCCC3)c3c(-c4ccc5nc(C)oc5c4)c[nH]c3n2)c(OC)c1
Response: inactive

Prompt: Recorded test call requested for CC(C)CC(NC(=O)C(Cc1ccccc1)NC(=O)c1cnccn1)B(O)O (stereo unspecified) + CNC(=O)c1ccc(Nc2nc(OC3CCCC3)c3c(-c4ccc5nc(C)oc5c4)c[nH]c3n2)c(OC)c1
Response: active

Prompt: Recorded test call requested for CC(C)CC(NC(=O)C(Cc1ccccc1)NC(=O)c1cnccn1)B(O)O (stereo unspecified) + CN1CCN(c2cc(C(=O)Nc3cc4cc(-c5cnn(C)c5)ccc4cn3)ccn2)CC1
Response: active
